- System: upside-down jellyfish, family Cassiopeidae
- Assay Method Text: In vivo field study: perceived stinging sensation after contact with upside-down jellyfish
- Test Conditions: perceived sting: 0 no sting, 1 mild sting, 2 definite sting; compound in SPF15 TeekaTan oil-in-water sunscreen base; skin location lower arm, left
Reported Sting score, Lower arm, left values are given for each entry in this list.

| Compound | Sting score, Lower arm, left |
| --- | --- |
| [I-].[Rb+] [RuI, rubidium iodide] | 0 |
| [Cl][Pr]([Cl])[Cl] [PrCl3, reference compound] | 2 |
| [Cl][Nd]([Cl])[Cl] [NdCl3, reference compound] | 2 |
| CC(C)[C@@H]1CC[C@@H](C)C[C@H]1O (racemic) | 0 |
